Values compiled from ChEMBL document CHEMBL1131072.

# protocol description: Compound was tested for equilibrium constants (pKa1) potentiometrically
# Assay type: physicochemical
# condition info: read-out: pKa1
parameter: pKa

smiles	pKa
Cc1c(O)c(=O)ccn1CCO	3.44
CCc1c(O)c(=O)ccn1CCO	3.31
Cc1c(O)c(=O)ccn1CCC(=O)O	3.1
CCc1c(O)c(=O)ccn1CCCC(=O)O	3.21
CCc1c(O)c(=O)ccn1CCC(=O)O	3.12

* * *

# protocol description: Compound was tested for equilibrium constants (pKa2) of the (hydroxyalkyl)pyridinone corresponds to the 3-hydroxy function spectrophotometrically..
parameter: pKa

smiles	parameter	numeric readout
Cc1c(O)c(=O)ccn1CCO	pKa	9.72
CCc1c(O)c(=O)ccn1CCO	pKa	9.75
